Experiment: log D (shake flask, 1-octanol/aqueous buffer)
Format: physicochemical
Details: 1-octanol/aqueous buffer, pH 7.4, pH 7.4, 1-octanol/aqueous buffer
MEASUREMENT NAME: logD
Note: the reply should be a number with no unit written.

Measured logD, `C[C@@H]1Cc2c(ccc3[nH]ncc23)[C@@H](c2ccc(N(C)C3CN(CCCF)C3)cn2)N1CC1(F)CC1` : 2.9

Measured logD, `C[C@@H]1Cc2c(ccc3[nH]ncc23)[C@@H](c2ccc(NC3CN(CCCF)C3)cn2)N1CC(F)(F)F` : 2.9

Measured logD, `COc1cc(NC2CN(CCCF)C2)ccc1[C@@H]1c2ccc3[nH]ncc3c2C[C@@H](C)N1CC(F)F` : 3.1

Measured logD, `COCC(F)(F)CN1[C@H](c2ccc(NC3CN(CCCF)C3)cc2OC)c2ccc3[nH]ncc3c2C[C@H]1C` : 3.4

Measured logD, COc1cc(NC2CN(CCCF)C2)ccc1[C@@H]1c2ccc3[nH]ncc3c2C[C@@H](C)N1CC(C)F (single isomer, unassigned) : 2.7

Measured logD, `COc1cc(N(C)C2CN(CCCF)C2)ccc1[C@@H]1c2ccc3[nH]ncc3c2C[C@@H](C)N1CC1(F)CC1` : 3

Measured logD, `C[C@@H]1Cc2c(ccc3[nH]ncc23)[C@@H](c2cnc(NC3CN(CCCF)C3)cn2)N1CC1(F)CC1` : 2.1

Measured logD, `C[C@@H]1Cc2c(ccc3[nH]ncc23)[C@@H](c2ccc(OC3CN(CCCF)C3)cn2)N1CC(F)F` : 3

Measured logD, `C[C@@H]1Cc2c(ccc3[nH]ncc23)[C@@H](c2ncc(OC3CN(CCCF)C3)cc2F)N1CC(F)(F)CO` : 2.4

Measured logD, `COc1cc(NC2CN(CCCF)C2)c(F)cc1[C@@H]1c2ccc3[nH]ncc3c2C[C@@H](C)N1CC1(F)CC1` : 3.2

Measured logD, `C[C@@H]1Cc2c(ccc3[nH]ncc23)[C@@H](c2ncc(NC3CN(CCCF)C3)cc2F)N1CC(F)F` : 2.5

Measured logD, `C[C@@H]1Cc2c(ccc3[nH]nc(F)c23)[C@@H](c2ccc(NC3CN(CCCF)C3)cn2)N1CC(F)(F)CO` : 2.7

Measured logD, `C[C@@H]1Cc2c(ccc3[nH]nc(F)c23)[C@@H](c2cnc(NC3CN(CCCF)C3)cn2)N1CC(F)(F)F` : 3.1

Measured logD, `C[C@@H]1Cc2c(ccc3[nH]nc(F)c23)[C@@H](c2ccc(NC3CN(CCCF)C3)c(F)n2)N1CC(F)(F)CO` : 2.8

====

Please provide measured solubility at 24 h for the entries that follow.
Test: Thermodynamic solubility (shake-flask)
Type: physicochemical
Details: aqueous phosphate buffer, 25 °C, pH 7.4, aqueous buffer, thermodynamic from solid, aqueous phosphate buffer pH 7.4, 24 hours
Give just the numeric value; µM need not be written.

Measured solubility at 24 h, `C[C@@H]1Cc2c(ccc3[nH]ncc23)[C@@H](c2ncc(NC3CN(CCCF)C3)cc2F)N1CC(F)(F)CF` : 666

Measured solubility at 24 h, `C[C@@H]1Cc2c(ccc3[nH]nc(F)c23)[C@@H](c2ccc(NC3CN(CCCF)C3)c(F)n2)N1CC(F)(F)F` : 257

Measured solubility at 24 h, `COc1cc(NC2CN(CCCF)C2)c(F)cc1[C@@H]1c2ccc3[nH]ncc3c2C[C@@H](C)N1CC1(F)CC1` : 691

====

Test: Human plasma protein binding (equilibrium dialysis)
Type: in vitro ADME
Conditions: dialysis 18 hours
Please provide measured Human plasma protein binding (% free) for the entries that follow.
Give just the numeric value; % free need not be written.

Measured Human plasma protein binding (% free), `C[C@@H]1Cc2c(ccc3[nH]ncc23)[C@@H](c2c(F)cc(NC3CN(CCCF)C3)cc2F)N1CC(F)(F)F` : 0.99

Measured Human plasma protein binding (% free), `COCC(F)(F)CN1[C@H](c2ccc(NC3CN(CCCF)C3)cn2)c2ccc3[nH]ncc3c2C[C@H]1C` : 28

Measured Human plasma protein binding (% free), `C[C@@H]1Cc2c(ccc3[nH]ncc23)[C@@H](c2ccc(OC3CN(CCCF)C3)cn2)N1CC(F)F` : 22

Measured Human plasma protein binding (% free), COCC(C)(F)CN1[C@H](c2ccc(NC3CN(CCCF)C3)cc2OC)c2ccc3[nH]ncc3c2C[C@H]1C (stereo partly shown) : 21

====

Assay: Human Caco-2 bidirectional permeability A to B and B to A
Assay type: in vitro ADME
Settings: Caco-2, 2 hours, pH 7.4
MEASUREMENT NAME: Papp at 2 h (×10⁻⁶ cm/s)
Give just the numeric value; ×10⁻⁶ cm/s need not be written.

Measured Papp at 2 h, COc1cc(NC2CN(CCCF)C2)ccc1[C@@H]1c2ccc3[nH]ncc3c2C[C@@H](C)N1CC(F)F [Example 21] : 4

Measured Papp at 2 h, C[C@@H]1Cc2c(ccc3[nH]ncc23)[C@@H](c2ccc(NC3CN(CCCF)C3)cn2)N1CC(F)(F)F [Example 17] : 4.7

Measured Papp at 2 h, COCC(F)(F)CN1[C@H](c2ccc(NC3CN(CCCF)C3)cn2)c2ccc3[nH]ncc3c2C[C@H]1C [Example 2] : 3.9

Measured Papp at 2 h, C[C@@H]1Cc2c(ccc3[nH]ncc23)[C@@H](c2ncc(NC3CN(CCCF)C3)cc2F)N1CC(F)(F)F [Example 30] : 2.7

====

Target: recombinant human Estrogen Receptor alpha ligand binding domain (ER alpha-LBD (GST)) (Homo sapiens (Human), UniProt P03372)
Sequence (P03372 307-554): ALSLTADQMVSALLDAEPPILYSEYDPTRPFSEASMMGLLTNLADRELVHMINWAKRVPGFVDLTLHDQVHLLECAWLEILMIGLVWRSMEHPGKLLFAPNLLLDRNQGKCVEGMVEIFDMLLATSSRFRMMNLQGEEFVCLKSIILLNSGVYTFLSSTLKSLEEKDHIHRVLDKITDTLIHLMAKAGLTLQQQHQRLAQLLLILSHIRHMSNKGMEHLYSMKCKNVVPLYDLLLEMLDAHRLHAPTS
Assay: ERα binding assay (LanthaScreen TR-FRET competition)
Settings: TR-FRET, displacement of Fluormone ES2
MEASUREMENT NAME: pIC50
The scale used: pIC50 is minus the common logarithm of the concentration in molar units.

Measured pIC50, COc1cc(N(C)C2CN(CCCF)C2)ccc1[C@@H]1c2ccc3[nH]ncc3c2C[C@@H](C)N1CC1(F)CC1 [Example 52] : 7.96

Measured pIC50, C[C@@H]1Cc2c(ccc3[nH]ncc23)[C@@H](c2ccc(NC3CN(CCCF)C3)cc2)N1CC(F)F [Example 48] : 8.82

Measured pIC50, COc1cc(NC2CN(CCCF)C2)ccc1[C@@H]1c2ccc3[nH]ncc3c2C[C@@H](C)N1CC(C)(F)F [Example 19] : 8.59

Measured pIC50, COc1cc(NC2CN(CCC(F)(F)F)C2)ccc1[C@@H]1c2ccc3[nH]ncc3c2C[C@@H](C)N1CC1(F)CC1 [Example 56] : 8.09

Measured pIC50, C[C@@H]1Cc2c(ccc3[nH]nc(F)c23)[C@@H](c2ccc(NC3CN(CCCF)C3)c(F)n2)N1CC(F)(F)F [Example 39] : 9.03

Measured pIC50, C[C@@H]1Cc2c(ccc3[nH]ncc23)[C@@H](c2c(F)cc(NC3CN(CCCF)C3)cc2F)N1CC(C)(F)CO (single isomer, unassigned) [Example 23] : 7.82

Measured pIC50, COc1cc(NC2CN(CCCF)C2)ccc1[C@@H]1c2ccc3[nH]ncc3c2C[C@@H](C)N1CC1(CF)COC1 [Example 10] : 8.10

====

Target: recombinant human Estrogen Receptor alpha ligand binding domain (ER alpha-LBD (GST)) (Homo sapiens (Human), UniProt P03372)
Experiment: ERα binding assay (LanthaScreen TR-FRET competition)
Conditions: TR-FRET, displacement of Fluormone ES2
Please provide measured pIC50 for the entries that follow.
The scale used: pIC50 is minus the common logarithm of the concentration in molar units.

Measured pIC50, `C[C@@H]1Cc2c(ccc3[nH]ncc23)[C@@H](c2ccc(NC3CN(CCCF)C3)cn2)N1CC(F)(F)CO` : 8.16

Measured pIC50, `COc1cc(NC2CN(CCCF)C2)ncc1[C@@H]1c2ccc3[nH]ncc3c2C[C@@H](C)N1CC1(F)CC1` : 6.44

Measured pIC50, `C[C@@H]1Cc2c(ccc3[nH]ncc23)[C@@H](c2c(F)cc(NC3CN(CCCF)C3)cc2F)N1CC(F)(F)F` : 8.70

Measured pIC50, `C[C@@H]1Cc2c(ccc3[nH]ncc23)[C@@H](c2ccc(N(C)C3CN(CCCF)C3)cn2)N1CC1(F)CC1` : 8.30

====

Test: log D (shake flask, 1-octanol/aqueous buffer)
Format: physicochemical
Conditions: 1-octanol/aqueous buffer, pH 7.4, pH 7.4, 1-octanol/aqueous buffer
MEASUREMENT NAME: logD
Note: the reply should be a number with no unit written.

Measured logD, COC[C@](C)(F)CN1[C@H](c2ccc(OC3CN(CCCF)C3)cc2OC)c2ccc3[nH]ncc3c2C[C@H]1C (single isomer, unassigned) : 3.9

Measured logD, `C[C@@H]1Cc2c(ccc3[nH]ncc23)[C@@H](c2ncc(NC3CN(CCCF)C3)cc2F)N1CC1(F)CC1` : 2.6

Measured logD, `C[C@@H]1Cc2c(ccc3[nH]ncc23)[C@@H](c2c(F)cc(NC3CN(CCCF)C3)cc2F)N1CC1(F)CC1` : 3.9
